test system: HOP-18; test: NCI tumour cell line growth inhibition, 48 h
Calls of active or inactive are those of the source. No stated cut-off is given here; in the data, active = GI50 up to about 1.1 µM and inactive = higher.
The reply should name one outcome from true = active, false = inactive

See these solved cases before continuing.
* O=c1[nH]ccc(CNC23CC4CC(CC(C4)C2)C3)c1O | false
* COC1C(O)C(C)OC(OC2C(Oc3cccc4c(O)c5c(=O)oc6ccc(C)c7c(=O)oc(c34)c5c67)OC(C)C3O[C@H](c4ccccc4)OC32)C1O (some centres not stated) | true
* COc1ccc(Br)c(N/N=C2\CCCNC2=O)c1 | false
* c1ccc2c(C3NCCc4nc[nH]c43)cccc2c1 (configuration not stated) | false
* O=C(Nc1ccccc1[N+](=O)[O-])c1ccccc1 | false
* COC(=O)/N=C(\NC(=O)OC)Nc1ccc(Oc2ccccc2)cc1NC=O | false

Just curious, what result did `O=c1cc(-c2ccccc2)oc2cc(OCC(O)COc3ccc4c(=O)cc(-c5ccccc5)oc4c3)ccc12` get here?
false

###

test system: LOX IMVI; experiment: NCI tumour cell line growth inhibition, 48 h
Active and inactive are the calls of the source. Rule as the data show it: active = GI50 up to about 1.1 µM and inactive = higher.
The reply should name one outcome from true for active, false for inactive

See these solved cases before continuing.
• C=C1CC(COc2ccc3c(C)c(C)c(=O)oc3c2C)(c2ccccc2)OC1=O (configuration not stated) = true
• c1ccc([P+](CCN2Cc3ccccc3C2)(c2ccccc2)c2ccccc2)cc1 = false

Just curious, what result did `CC1=C[C@H]([C@H]2C=C(C)C(C(N)=O)=CN2Cc2c(Cl)cccc2Cl)N(Cc2c(Cl)cccc2Cl)C=C1C(N)=O` get here?
false

Just curious, what result did C=C1C(=O)OC2CC1CCC1(C)OC1CCC(C)=CCCC2(C)O (configuration not stated) get here?
false

Just curious, what result did CC1NC(=O)C(C)C(c2ccccc2)N(N=O)C1c1ccccc1 (configuration not stated) get here?
false

Just curious, what result did CC1=C2C3OC(=O)C(C)C3CCC2(C)C=C/C1=N\c1ccccc1 (configuration not stated) get here?
false

Just curious, what result did `CC(C)C(=O)Oc1cc2c(=O)oc3c(OC(=O)C(C)C)c(OC(=O)C(C)C)cc4c(=O)oc(c1OC(=O)C(C)C)c2c34` get here?
false

###

tested on: MCF7; test: NCI tumour cell line growth inhibition, 48 h
Active and inactive are the calls of the source. Cut-off read from the data, not from the text of the source: active = GI50 up to about 1.1 µM and inactive = higher.
The reply should name one outcome from TRUE for active, FALSE for inactive

See these solved cases before continuing.
* CN(CCO)Cc1ncccc1O | FALSE
* Cc1cc(S(=O)(=O)Nc2nnc3cc(C(F)(F)F)cc(C)n23)c(S)cc1Cl | FALSE
* COc1cc(C2c3cc4c(cc3OC(N3CCNCC3)C2C)OCO4)cc(OC)c1OC (configuration not stated) | TRUE

Just curious, what result did COc1cccc(N2N=C3c4ccccc4-n4c(nc5ccccc54)C3C2N)c1 (configuration not stated) get here?
FALSE

Just curious, what result did COC(=O)C1=C(OC(=O)/C(=C/c2ccccc2)c2ccc(Cl)cc2)C(C(=O)OC)[C@@]2(O)[C@@H](C(=O)OC)[C@H](C)C[C@@H]1[C@@H]2C(=O)OC (some centres not stated) get here?
FALSE

###

tested on: ACHN; experiment: NCI tumour cell line growth inhibition, 48 h
The source made the active and inactive calls. Rule as the data show it: active = GI50 up to about 1.1 µM and inactive = higher.
recorded.endpoint: GI50

Below, each entry is followed by its recorded GI50 result.
* COC(=O)C(C(=O)C(=O)Nc1ccc(Br)cc1)c1nc2ccc(Cl)cc2nc1O (stereo unspecified) | > 91.8 µM (inactive)
* C=C(Cl)C(Br)(CBr)CCC(Br)C(C)(C)Br (stereo unspecified) | 9.16 µM (inactive)
* CCOC(OCC)C(CC)[Se]c1ccccc1 (stereo unspecified) | > 100 µM (inactive)
* COc1ccc(/N=C(C)/C(C)=N/c2ccc(OC)cc2)cc1 | 3.36 µM (inactive)
* O=C(/C=C/c1ccc(OCc2ccccc2)cc1)NCc1ccc(C(=O)NCc2ccccc2)cc1 | > 100 µM (inactive)

# input for lookup
Given the entry `Nc1nc(CCC(=O)Nc2cccc(C(F)(F)F)c2)cc(-c2ccc3ccccc3c2)n1` , what GI50 was observed with ACHN?
> 100 µM (inactive)

###

tested on: HCT-15; assay: NCI tumour cell line growth inhibition, 48 h
Where a SMILES comes first, the peptide text is derived from it. [ ]: non-standard residue; d: D form. The star is where a group is joined. ξ: configuration not given here. ξNMe2Val = CC(C)C(C(=O)*)N(C)C; NMeV = CN[CH](C(=O)O)C(C)C; NHBn = c1ccc(CN*)cc1
recorded.endpoint: GI50

* CCN(CC)CCCN(c1cc(OC)cc2nccnc12)S(=O)(=O)c1ccc(C)cc1 | > 100 µM
* CSc1nc(O)c(C#N)c(-c2ccc(Cl)cc2)n1 | > 100 µM
* O=c1c2cc([N+](=O)[O-])ccc2[nH]n1Cc1ccccc1Cl | > 100 µM
* CC(C)C(NC(=O)C(C(C)C)N(C)C)C(=O)N(C)C(C(=O)N1CCCC1C(=O)N1CCCC1C(=O)NCc1ccccc1)C(C)C (configuration not stated) (ξNMe2Val-V[NMeV]PP-NHBn; configuration not given here) | < 0.0001 µM
* c1ccc(C(CCN2CCCC2)c2ccccn2)cc1 (configuration not stated) | > 100 µM

Look at this compound and give its reported GI50. `CN(C)c1ccc(C2=C([O-])c3cc(-[n+]4ccccc4)ccc3C2=O)cc1`
> 100 µM

Look at this compound and give its reported GI50. CC1CC/C(=C\c2ccc(N(C)C)cc2)C2=C1C(c1ccc(N(C)C)cc1)NC(=S)N2 (configuration not stated)
> 100 µM

Look at this compound and give its reported GI50. `CC(C)C(=O)Oc1cc2c(=O)oc3c(OC(=O)C(C)C)c(OC(=O)C(C)C)cc4c(=O)oc(c1OC(=O)C(C)C)c2c34`
> 100 µM

Look at this compound and give its reported GI50. CC1(C)C2CCC(CN)(C2)C1O (configuration not stated)
> 100 µM

Look at this compound and give its reported GI50. C[C@]12Cc3cn[nH]c3C(=O)C1CC[C@@H]1C2CC[C@@]2(C)C1CC[C@@H]2O (some centres not stated)
> 100 µM

Look at this compound and give its reported GI50. `O=C1/C(=C/c2ccccc2)Oc2cc(O)ccc21`
> 100 µM

Look at this compound and give its reported GI50. COC(=O)c1ccccc1C1CN=NC12Cc1c(C)ccc(C)c1C2=O (configuration not stated)
> 100 µM

Look at this compound and give its reported GI50. `COc1cc2c(c(OC)c1OC)-c1ccc(SC)c(=O)cc1[C@@H](NC(=O)c1ccc(Cl)cc1)CC2`
< 0.01 µM

###

system: MOLT-4; experiment: NCI tumour cell line growth inhibition, 48 h
Activity calls are given as the source filed them. Cut-off read from the data, not from the text of the source: active = GI50 up to about 1.1 µM and inactive = higher.
recorded.endpoint: GI50

- CC/C=C/C(=O)CC(O)(C(F)(F)F)C(F)(F)F: > 100 µM (inactive)

Look at this molecule and give its reported GI50. COC12CCC(C(C(=O)c3ccccc3)=C1C(=O)c1ccccc1)C(O)C2 (stereo not given)
> 100 µM (inactive)

Look at this molecule and give its reported GI50. `O=C(Nn1c(-c2ccccc2)nc2ccccc2c1=O)c1ccc(CS)cc1`
16.6 µM (inactive)

Look at this molecule and give its reported GI50. `O=C1c2cccc3cccc(c23)C(=O)N1CCCN1CCN(CCCN2C(=O)c3cccc4cccc(c34)C2=O)CC1`
> 100 µM (inactive)

Look at this molecule and give its reported GI50. `Cc1cc(C)nc(/C(=N\NC(N)=O)C(=O)Nc2nc3ccc(C)cc3s2)c1`
> 100 µM (inactive)

###

test system: NCI-H23; test: NCI tumour cell line growth inhibition, 48 h
The source made the active and inactive calls. Rule as the data show it: active = GI50 up to about 1.1 µM and inactive = higher.
Recorded GI50 values for a group of compounds are listed next.

• CN1C(=O)CCC1c1ccc2c(c1)oc(=O)n2C (stereo unspecified) = > 100 µM (inactive)
• O=C(O)C[C@@H]1[C@@H](O)[C@@H](O)CN2C(=O)c3ccccc3[C@H]12 = > 100 µM (inactive)
• CC1(C)CCC[C@@]2(C)C1CC[C@@]1(CO)O[C@H](C3=CC(=O)OC3O)C[C@H]12 (stereo partly specified) = 13.6 µM (inactive)
• CCn1c(=O)c2cn[nH]c2n(C)c1=O = > 100 µM (inactive)

Look at this compound and give its reported GI50. COC1CC(OC(=O)c2ccccc2)C(OC(=O)c2ccccc2)C(C)O1 (stereo unspecified)
> 100 µM (inactive)

Look at this compound and give its reported GI50. `NC(=O)COC(=O)c1c(Cl)nc2sccn12`
> 100 µM (inactive)

###

test system: IGROV-1; experiment: NCI tumour cell line growth inhibition, 48 h
The source made the active and inactive calls. Rule as the data show it: active = GI50 up to about 1.1 µM and inactive = higher.
The reply should name one outcome from active, inactive

See these solved cases before continuing.
• Cc1c2c(c(C)n1-c1ccccc1)C(=O)N(CCSC(=N)N)C2=O = inactive
• CC1SC2=NC3=C(c4ccccc4C3=O)C(c3ccc(Cl)cc3)N2C1=O (centres undefined) = inactive
• N=C1c2ccccc2C(=O)c2c(NCCNCCO)ccc(O)c21 = inactive

Just curious, what result did `Cc1ccc(S(=O)(=O)Oc2nc3nc4ccccc4nc3nc2OS(=O)(=O)c2ccc(C)cc2)cc1` get here?
inactive

Just curious, what result did COC1C(N)C(OC2C(Oc3cccc4c(O)c5c(=O)oc6ccc(C)c7c(=O)oc(c34)c5c67)OC(C)C(O)C2(C)O)OC(C)C1O (centres undefined) get here?
active

Just curious, what result did CC1CC(N)=Nc2ccccc2N1 (centres undefined) get here?
inactive

Just curious, what result did CC1=C2CCCC2C/C(=N/Nc2ccc([N+](=O)[O-])cc2[N+](=O)[O-])CC1 (centres undefined) get here?
inactive

Just curious, what result did CCCC(=O)NC(C(=O)OCC)(N1CCOCC1)C(F)(F)F (centres undefined) get here?
inactive

Just curious, what result did `Nc1nc(CCC(=O)Nc2cccc(C(F)(F)F)c2)cc(-c2ccc3ccccc3c2)n1` get here?
inactive

Just curious, what result did CC1=C2C3OC(=O)C(C)C3CCC2(C)C=C/C1=N\c1ccccc1 (centres undefined) get here?
inactive

Just curious, what result did `COc1ccc(C)cc1-c1ccc(-c2cc(C)ccc2OC)o1` get here?
inactive

Just curious, what result did `Cc1ccc(C(=O)NC2CCCCC2)cc1/N=N/N(C)C` get here?
inactive

Just curious, what result did `NNC(=O)CNC(=O)c1ccc(Cl)cc1Cl` get here?
inactive

Just curious, what result did `COc1ccc(-c2c(C#N)c(N)nc(Sc3ccccc3N)c2C#N)cc1` get here?
inactive

Sourced from ChEMBL document CHEMBL1201862
